Hello, the source for this data is patent US20210253725A1, in case you need it.

- Target system: T1, CD27 protein (His-tagged, Sino Biological Inc. 10039-H08B1) (human, UniProt P26842 20-192)
- T1 construct: bought; coated onto ELISA plates; also called human CD27; recombinant protein; not shown: His tag
- T1 sequence (looked up): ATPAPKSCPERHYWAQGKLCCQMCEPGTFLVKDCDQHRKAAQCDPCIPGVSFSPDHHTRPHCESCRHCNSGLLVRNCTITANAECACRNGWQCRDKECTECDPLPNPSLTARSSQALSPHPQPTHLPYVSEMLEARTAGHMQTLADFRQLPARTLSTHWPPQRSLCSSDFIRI
- Test summary: ELISA on coated His-tagged CD27; further: test concentration or dose not given here
Recorded ELISA [abs. corr.], one value per entry.
Output spec: scalar in abs. corr., unitless text.

Solved cases (4 shown):
1. P018.S.10.A.B06 (antibody, V domains shown, V regions on human Ig constant parts; also called AB27_169) VH: QSVEESGGRLVTPGTPLTLTCTVSGFSLSSSHMCWVRQAPGKGLEWIGVINIGDIAYYASWAKGRFTISKTSTTVDLKMTSLTAADTATYFCARENAYGTGWDFDLWGQGTLVTVSS VL: AYDMTQTPASVEVAVGGTVTIKCQASESIRNALAWYQQKPGQPPKQLIYSASTLASGVPSRFKGSGSGTEFTLTISGVQSDDAATYYCQQGFSLRNVDNAFGGGTEVVVK	3.25
2. P018.S.02.A.E06 (antibody, V domains shown, V regions on human Ig constant parts; also called AB27_34) VH: QSLEESGGRLVTPGTPLTLTCTASGFSLSNYSMNWVRQAPGKGLEWIGIINMYGSTYYATWAKGRFTISKTSTTVDLKMTSLTTEDTATYFCARDAGGSTVPWYFDLWGPGTLVTVSS VL: AYDMTQTPASVSEPVGGTVTIKCQASESISDYLAWYQQKPGQRPKLLIYDASKLASGVPSRFSGSGSGTEFTLTISGVGSADAATYYCQQGYADSNVDNVFGGGTEVVVK	3.32
3. P018.S.10.A.G03 (antibody, V domains shown, V regions on human Ig constant parts; also called AB27_182) VH: QSVEESGGRLVTPGTPLTLTCTVSGFTISSYHMCWVRQAPGKGLQYIGIIGSNGNTYYASWAKSRSTITRNTNENTVTLKMTSLTTEDTATYFCARSSGWGARFNLWGQGTLVTVSS VL: AQVLTQTPSSVSAAVGGTVTINCQASQSVYNDNELSWYQQKPGQPPKLLIYKASTLTSGVPLRFSGSGSGTQFTLTISDVQSDDAATYYCLGGGSTPSDSTFGGGTEVVVK	3.31
4. P018.S.01.A.F02 (antibody, V domains shown, V regions on human Ig constant parts; also called AB27_19) VH: QQQLVESGGGLVRPGASLTLTCKASGFSFSSGYYVCWVRQAPGKGLEWIACIFAGSGGGAGYATWAKGRFTISKTSSTTVTLQMTSLTAADTATYFCARPLSGYAYGMDLWGPGTLVTVSL VL: DVVMTQTPASVSEPVEGTVTIKCQASQTISNYLAWYQQKPGQPPKLLIYGASTLESGVSSRFKGSGSGTQFTLTIYDLESADAATYYCQCTYDGSSDVGGAFGGGTEVVVK	3.42

For the next question, use this binder.
Form field: reported ELISA [abs. corr.] of P018.S.03.A.H02 (antibody, V domains shown, V regions on human Ig constant parts; also called AB27_60) VH: QSLEESGGRLMTPGGSLTLTCTVSGFSLSDYNMQWVRQAPGEGLEWIGIISLGGTTDYANWVKGRFTISKTSTTVDLKMTSLTASDTATYFCARDPAGGNWAELDLWGQGTLVTVSS VL: DIVMTQTPASVSEPVGGTVTIKCQASQSISSWLSWFQQKPGQPPKLLIYDASTLASGVPSRFKGSGSGTEFTLTISDLESADAATYYCQQGSTISNVDNAFGGGTEVVVK 3.15
